Biological target: Excitatory amino acid transporter 3 (Homo sapiens, UniProt P43005)
Sequence (P43005 whole entry): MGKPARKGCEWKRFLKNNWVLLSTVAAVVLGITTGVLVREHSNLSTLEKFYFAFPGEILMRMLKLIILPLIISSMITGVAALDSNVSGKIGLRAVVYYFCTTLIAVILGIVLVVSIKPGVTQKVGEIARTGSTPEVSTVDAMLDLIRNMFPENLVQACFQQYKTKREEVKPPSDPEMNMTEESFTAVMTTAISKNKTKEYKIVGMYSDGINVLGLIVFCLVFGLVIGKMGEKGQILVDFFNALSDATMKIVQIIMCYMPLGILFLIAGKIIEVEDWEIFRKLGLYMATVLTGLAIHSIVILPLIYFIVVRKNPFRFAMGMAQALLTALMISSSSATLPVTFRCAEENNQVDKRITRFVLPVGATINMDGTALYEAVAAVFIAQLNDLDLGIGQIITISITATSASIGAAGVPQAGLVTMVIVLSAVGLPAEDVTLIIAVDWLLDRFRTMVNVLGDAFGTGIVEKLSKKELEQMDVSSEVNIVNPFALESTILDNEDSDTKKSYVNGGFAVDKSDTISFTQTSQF
pIC50: −log10 of the molar value.
Would you kindly list pIC50 for each of these molecules?

stdin: Given the molecule CSc1ccc(C2C3=C(CC(c4ccccc4)CC3=O)OC(=N)C2C#N)cc1 (stereo not given) , what is its reported pIC50?
stdout: < 4.00

stdin: Given N#CC1C(=N)OC2=C(C(=O)CC(c3ccccc3)C2)C1c1ccc(-c2ccccc2)cc1 (stereo not given) , state its recorded pIC50.
stdout: < 4.00

stdin: Fill in: pIC50 of N#CC1C(=N)OC2=C(C(=O)CC(c3ccccc3)C2)C1c1ccc2ccccc2c1 (stereo not given) is ___
stdout: < 4.00

stdin: Find the recorded pIC50 belonging to COc1ccc(C2C3=C(CC(c4ccccc4Cl)CC3=O)OC(=N)C2C#N)cc1 (stereo not given) and report it.
stdout: < 3.52

stdin: Item N#CC1C(=N)OC2=C(C(=O)CC(c3ccco3)C2)C1c1ccccc1 (stereo not given) has what recorded pIC50?
stdout: < 3.52

* * *

pIC50: −log10 of the molar value.
What pIC50 was measured for each of the following?

stdin: Which measured pIC50 belongs to N#CC1C(=N)OC2=C(C(=O)CC(c3ccccc3)C2)C1Cc1ccccc1 (centres undefined) , tested on UniProt P43004?
stdout: < 4.00

stdin: Item: CC1CC(=O)C2=C(C1)OC(=N)C(C#N)C2c1ccc2c(c1)OCO2 (centres undefined) Test system: UniProt P43004 Read-out: pIC50 Value: ?
stdout: < 3.52

stdin: # returns recorded pIC50 (system: UniProt P43004) for CSc1ccc(C2C3=C(CC(c4ccccc4)CC3=O)OC(=N)C2C#N)cc1 (centres undefined)
stdout: < 4.00

stdin: Give UniProt P43004 pIC50 for N#CC1C(=N)OC2=C(C(=O)CC(c3ccccc3)C2)C1c1cccnc1 (centres undefined)
stdout: < 3.52

stdin: Identify the measured pIC50 of N#CC1C(=N)OC2=C(C(=O)CC(c3ccccc3)C2)C1c1ccc([N+](=O)[O-])cc1 (centres undefined) for UniProt P43004.
stdout: < 4.00

stdin: API: value(readout=pIC50, system=UniProt P43004) for record COc1ccc(C2C3=C(CC(c4ccc(OC)c(OC)c4)CC3=O)OC(=N)C2C#N)cc1 (centres undefined)
stdout: < 3.52

stdin: Kindly state the measured pIC50 obtained for N#CC1CC2=C(CC(c3ccccc3)CC2=O)OC1=N (centres undefined) with UniProt P43004.
stdout: < 3.52

stdin: Find pIC50 (UniProt P43004) for the entry N#CC1C(=N)OC2=C(C(=O)CC(c3ccccc3)C2)C1c1ccc2c(c1)OCO2 (centres undefined)
stdout: < 3.52

stdin: Please tell me: pIC50 of COc1ccc(C2C3=C(CC(c4cccc5ccccc45)CC3=O)OC(=N)C2C#N)cc1 (centres undefined) , system UniProt P43004?
stdout: < 3.52

* * *

Molecular target: UniProtKB P43005
pIC50: −log10 of the molar value.
Would you kindly list pIC50 for each of these compounds?

stdin: Test system UniProtKB P43005; read-out pIC50; what value for N#CC1C(=N)OC2=C(C(=O)CCC2)C1c1ccccc1F (centres undefined) ?
stdout: < 3.52

stdin: Query the reported pIC50 for UniProtKB P43005; item: COc1ccc(C2C3=C(CC(c4cccc5ccccc45)CC3=O)OC(=N)C2C#N)cc1 (centres undefined)
stdout: < 3.52

stdin: Request: pIC50, test system UniProtKB P43005, entry CC1CC(=O)C2=C(C1)OC(=N)C(C#N)C2c1ccc2c(c1)OCO2 (centres undefined)
stdout: < 3.52

stdin: Write down the reported pIC50 of N#CC1C(=N)OC2=C(C(=O)CC(c3ccccc3)C2)C1c1ccc([N+](=O)[O-])cc1 (centres undefined) , test system: UniProtKB P43005.
stdout: < 4.00

* * *

Task for the reader: assign each of the following compounds its reported pIC50.
Interpret pIC50 as the negative base-10 log of the concentration measured in mol/L.

stdin: Checklist item: pIC50 tested on Excitatory amino acid transporter 1 (Homo sapiens, UniProt P43003), entry COc1ccc(C2C3=C(CC(c4ccco4)CC3=O)OC(=N)C2C#N)cc1OC(=O)N1CCOCC1 (stereo unspecified) , value?
stdout: 4.00

stdin: // fetch Excitatory amino acid transporter 1 (Homo sapiens, UniProt P43003) pIC50 for N#CC1C(=N)OC2=C(C(=O)CC(c3ccccc3)C2)C1Cc1ccccc1 (stereo unspecified)
stdout: 4.52

stdin: Excitatory amino acid transporter 1 (Homo sapiens, UniProt P43003) / pIC50 / N#CC1C(=N)OC2=C(C(=O)CC(c3ccccc3)C2)C1c1ccc([N+](=O)[O-])cc1 (stereo unspecified) : value?
stdout: 5.44

stdin: Find the measured pIC50: item COc1ccc(C2C3=C(CC(c4cccc5ccccc45)CC3=O)OC(=N)C2C#N)cc1 (stereo unspecified) , target or system Excitatory amino acid transporter 1 (Homo sapiens, UniProt P43003).
stdout: 6.18

stdin: Look up pIC50 with Excitatory amino acid transporter 1 (Homo sapiens, UniProt P43003) for this compound: N#CC1C(=N)OC2=C(C(=O)CC(c3ccccc3)C2)C1c1cccnc1 (stereo unspecified)
Sequence (P43003 whole entry): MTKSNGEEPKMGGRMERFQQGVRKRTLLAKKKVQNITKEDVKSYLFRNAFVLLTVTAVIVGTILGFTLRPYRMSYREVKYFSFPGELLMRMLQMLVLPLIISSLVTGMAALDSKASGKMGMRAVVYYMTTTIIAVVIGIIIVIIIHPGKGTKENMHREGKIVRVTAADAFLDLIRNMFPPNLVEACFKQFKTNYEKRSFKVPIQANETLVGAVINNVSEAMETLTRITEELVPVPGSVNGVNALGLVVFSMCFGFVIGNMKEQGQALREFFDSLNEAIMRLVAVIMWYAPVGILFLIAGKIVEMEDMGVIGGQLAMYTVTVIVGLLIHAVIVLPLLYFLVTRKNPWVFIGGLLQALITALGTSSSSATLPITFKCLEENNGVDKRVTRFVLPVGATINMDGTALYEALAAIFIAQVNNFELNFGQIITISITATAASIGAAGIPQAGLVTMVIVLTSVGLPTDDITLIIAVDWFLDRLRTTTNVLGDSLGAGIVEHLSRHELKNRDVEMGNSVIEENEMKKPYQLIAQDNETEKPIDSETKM
stdout: 4.52
